Below is a list of entries, each paired with its recorded pEC50 value.
Tested on: Leishmania donovani axenic amastigote parasites
test.protocol: Leishmania donovani axenic amastigote proliferation assay
Format: cell-based
condition.details: axenic amastigotes in vitro, read-out: L. donovani amastigotes EC50
Schema: pEC50 number; meaning minus log10 of the concentration expressed in molar units.

compound	numeric.value
CN1CCN(c2ccc(-c3cnc4nc(-c5cc(NC(=O)c6ccco6)ccc5Cl)[nH]c4c3)cc2)CC1 [Compound 22]	4.72

Prompt line: Given the compound Cc1cnc2nc(-c3cc(NC(=O)c4nccs4)ccc3Cl)[nH]c2c1 [Compound 192] , what is its reported pEC50?
Response line: 4.99

Prompt line: Given the compound CS(=O)(=O)c1ccc(-c2cnc3nc(-c4cc(NC(=O)c5ccco5)ccc4Cl)[nH]c3c2)cc1 [Compound 46] , what is its reported pEC50?
Response line: 6.30

Prompt line: Given the compound Cc1cnc2nc(-c3cc(NC(=O)c4cnco4)ccc3Cl)[nH]c2c1 [Compound 177] , what is its reported pEC50?
Response line: 5.64

----------
System: L. donovani HU3 strain in mouse peritoneal macrophages
test.protocol: Assay for proliferation of Leishmania parasites in mouse peritoneal macrophages
Format: cell-based, Leishmania donovani
condition.details: Leishmania donovani, Peritoneal macrophage, read-out: L. donavani Macrophage EC50
pEC50: −log10 of the molar value.
recorded.metric: pEC50

Prompt line: Given the compound Cc1cnc2nc(-c3cc(NC(=O)[C@H]4C[C@@H](O)CN4)ccc3F)[nH]c2c1 , what is its reported pEC50?
Response line: < 4.30

Prompt line: Given the compound Cc1cnc2nc(-c3cc(NC(=O)C4CC(F)(F)C4)ccc3Cl)[nH]c2c1 , what is its reported pEC50?
Response line: < 4.30

Prompt line: Given the compound Cc1cnc2nc(-c3cc(NC(=O)NC(C)C)ccc3Cl)[nH]c2c1 , what is its reported pEC50?
Response line: < 4.52

Prompt line: Given the compound Cc1cnc2nc(-c3cc(NC(=O)C(C)(C)NC(=O)OC(C)(C)C)ccc3Cl)[nH]c2c1 , what is its reported pEC50?
Response line: < 4.30

Prompt line: Given the compound Cc1cnc2nc(-c3cc(Nc4cccnc4N4CCOCC4)ccc3Cl)[nH]c2c1 , what is its reported pEC50?
Response line: < 4.49

Prompt line: Given the compound N#Cc1ccc(C(=O)Nc2ccc(Cl)c(-c3nc4ncc(C(F)(F)F)cc4[nH]3)c2)o1 , what is its reported pEC50?
Response line: 5.20

Prompt line: Given the compound CN(C)c1ccc(-c2cnc3nc(-c4cc(NC(=O)Nc5ccc(C(F)(F)F)cc5)ccc4F)oc3c2)cn1 , what is its reported pEC50?
Response line: < 4.30

Prompt line: Given the compound CCc1nnc(C(=O)Nc2ccc(F)c(-c3nc4ncc(Br)cc4o3)c2)o1 , what is its reported pEC50?
Response line: < 4.30

----------
Test system: L. donovani HU3 strain in mouse peritoneal macrophages
test.protocol: Assay for proliferation of Leishmania parasites in mouse peritoneal macrophages
Format: cell-based, Leishmania donovani
condition.details: Leishmania donovani, Peritoneal macrophage, read-out: L. donavani Macrophage EC50
Threshold-based label: EC50 under 7 µM gives 1, EC50 not under 7 µM gives -1.

structure.smiles.string	category
Cc1cnc2nc(-c3cc(NC(=O)Cc4ccc(Cl)cc4)ccc3Cl)[nH]c2c1	-1
Cc1cnc2nc(-c3cc(NC(=O)c4ccccc4Cl)ccc3Cl)[nH]c2c1	-1
CC(C)OC(=O)Nc1ccc(Cl)c(-c2nc3ncc(-c4ccccc4)cc3[nH]2)c1	1

Prompt line: # check: EC50 < 7 µM for Cc1cnc2nc(-c3cc(NC(=O)N4CCOCC4)ccc3Cl)[nH]c2c1
Response line: -1

Prompt line: # check: EC50 < 7 µM for COc1cc(C(=O)Nc2ccc(Cl)c(-c3nc4ncc(C)cc4[nH]3)c2)ccn1
Response line: -1

Prompt line: # check: EC50 < 7 µM for Cc1cnc2nc(-c3cc(NC(=O)CCCN(C)C)ccc3F)[nH]c2c1
Response line: -1

Prompt line: # check: EC50 < 7 µM for Cc1cnc2nc(-c3cc(NC(=O)c4ccc(C)o4)ccc3Cl)[nH]c2c1
Response line: 1

Prompt line: # check: EC50 < 7 µM for COC(=O)Nc1ccc(-c2cnc3nc(-c4cc(NC(=O)N5CCC5)ccc4Cl)[nH]c3c2)cc1
Response line: -1

Prompt line: # check: EC50 < 7 µM for Cc1cnc2nc(-c3cc(NC(=O)N(C)C4CCCC4)ccc3Cl)[nH]c2c1
Response line: -1

----------
System: Leishmania donovani axenic amastigote parasites
test.protocol: Leishmania donovani axenic amastigote proliferation assay
Assay type: cell-based
condition.details: axenic amastigotes in vitro, read-out: L. donovani amastigotes EC50
pEC50: −log10 of the molar value.
Below is a list of entries, each paired with its recorded pEC50 value.

molecule	pEC50
CO[C@@H](C(=O)Nc1ccc(Cl)c(-c2nc3ncc(C)cc3[nH]2)c1)c1ccccc1 [Compound 181]	< 4.60

Prompt line: Given the molecule CN(C)c1ccc(F)c(-c2nc3ncc(-c4ccc(OCCN5CCOCC5)cc4)cc3o2)c1 [Example 420] , what is its reported pEC50?
Response line: < 4.60

Prompt line: Given the molecule Cc1cnc2nc(-c3cc(NC(=O)Cc4ccc(F)c(F)c4)ccc3Cl)[nH]c2c1 [Compound 142] , what is its reported pEC50?
Response line: < 4.60

Prompt line: Given the molecule Cc1cnc2nc(-c3cc(NC(=O)N4CCC(N(C)C)C4)ccc3Cl)[nH]c2c1 (centres unmarked) [Compound 233] , what is its reported pEC50?
Response line: < 4.60

Prompt line: Given the molecule Cc1cnc2nc(-c3cc(NC(=O)C4CC(F)(F)C4)ccc3Cl)[nH]c2c1 [Compound 117] , what is its reported pEC50?
Response line: < 4.60

----------
Below is a list of entries, each paired with its recorded log10 EC50 value.
System: L. donovani HU3 strain in mouse peritoneal macrophages
test.protocol: Assay for proliferation of Leishmania parasites in mouse peritoneal macrophages
Format: cell-based, Leishmania donovani
condition.details: Leishmania donovani, Peritoneal macrophage, read-out: L. donavani Macrophage EC50
Base-10 log of EC50, unit µM.

molecule	log10 EC50
O=C(Nc1ccc(F)c(-c2nc3ncc(-c4ccc(OCC5CO5)cc4)cc3[nH]2)c1)N1CCCC1 (centres unmarked)	0.66
N#Cc1cnc2nc(-c3cc(NC(=O)c4ccco4)ccc3Cl)[nH]c2c1	0.85
COC(=O)c1ccc(-c2cnc3nc(-c4cc(NC(=O)c5ccco5)ccc4Cl)[nH]c3c2)cc1	0.32
Cc1cnc2nc(-c3cc(NC(=O)C(c4ccc(Cl)cc4)C(C)C)ccc3Cl)[nH]c2c1 (centres unmarked)	0.99
Cc1cnc2nc(-c3cc(NC(=O)c4ccccn4)ccc3Cl)[nH]c2c1	1.37

Prompt line: Given the molecule CN1CCN(c2ccc(-c3cnc4nc(-c5cc(NC(=O)c6ccco6)ccc5Cl)[nH]c4c3)cc2)CC1 , what is its reported log10 EC50?
Response line: 0.66

Prompt line: Given the molecule CN1CCOc2cc(-c3cnc4nc(-c5cc(NC(=O)c6ccco6)ccc5Cl)[nH]c4c3)ccc21 , what is its reported log10 EC50?
Response line: 0.51

Prompt line: Given the molecule CN(C)c1ccc(-c2cnc3nc(-c4cc(NC(=O)c5ccco5)ccc4Cl)[nH]c3c2)cn1 , what is its reported log10 EC50?
Response line: 0.20

Prompt line: Given the molecule CS(=O)(=O)c1ccc(-c2cnc3nc(-c4cc(NC(=O)c5ccco5)ccc4Cl)[nH]c3c2)cc1 , what is its reported log10 EC50?
Response line: 0.12

Prompt line: Given the molecule O=C(Nc1ccc(Cl)c(-c2nc3ncc(-c4ccnc(F)c4)cc3[nH]2)c1)c1ccco1 , what is its reported log10 EC50?
Response line: -0.25

----------
System: L. donovani HU3 strain in mouse peritoneal macrophages
test.protocol: Assay for proliferation of Leishmania parasites in mouse peritoneal macrophages
Assay type: cell-based, Leishmania donovani
condition.details: Leishmania donovani, Peritoneal macrophage, read-out: L. donavani Macrophage EC50
recorded.metric: EC50 (µM)
Answer format: numeric, µM implied, no suffix.

Example entries begin here.
structure.smiles.string	unit.text	EC50
Cc1cnc2nc(-c3cc(NC(=O)c4ccc(C)[nH]4)ccc3Cl)[nH]c2c1	µM	13.8
CNc1ccc(-c2cnc3nc(-c4cc(NC(=O)c5cnccn5)ccc4Cl)[nH]c3c2)cc1	µM	0.92
Cc1cnc2nc(-c3cc(NC(=O)c4ccc(F)o4)ccc3Cl)[nH]c2c1	µM	8
Cc1cc2[nH]c(-c3cc(NC(=O)c4ccco4)ccc3Cl)nc2nc1C	µM	49.4
CC(C)OC(=O)Nc1ccc(Cl)c(-c2nc3ncc(-c4ccccc4NC(=O)CCN)cc3[nH]2)c1	µM	39.1
O=C(Nc1ccc(Cl)c(-c2nc3ncc(C(F)(F)F)cc3[nH]2)c1)c1ccco1	µM	6
CC(C)N(C(=O)Nc1ccc(F)c(-c2nc3ncc(Br)cc3[nH]2)c1)C(C)C	µM	7.5
Cc1cnc2nc(-c3cc(NC(=O)Cc4ccc(C(F)(F)F)cc4)ccc3Cl)[nH]c2c1	µM	20.7

Prompt line: Given the compound O=C(Nc1ccc(Cl)c(-c2nc3ncc(-c4ccc(CN5CCOCC5)cc4)cc3[nH]2)c1)c1ccco1 , what is its reported EC50?
Response line: 1.63
